Test system: Klebsiella pneumoniae
Experiment: Antibacterial activity against Klebsiella pneumoniae by broth micro-dilution technique
Type: functional
assay.endpoint: MIC (µg/mL)
Provide only the numeric value, understood in µg/mL.

O=c1cc(-c2ccc(O)c(O)c2)oc2cc(O)cc(O)c12
25
O=C(OCC1=C[C@@H](O)[C@@H]2C=CO[C@@H](O[C@H]3O[C@@H](CO)[C@H](O)[C@@H](O)[C@@H]3O)[C@H]12)c1ccc(O)cc1
50

Ask: // map CC1(C)S[C@@H]2[C@H](NC(=O)[C@H](N)c3ccccc3)C(=O)N2[C@H]1C(=O)O to recorded MIC (system: Klebsiella pneumoniae)
Reply: 0.09

Ask: // map COc1ccc(-c2oc3cc(OC)c(OC)c(O)c3c(=O)c2OC)cc1OC to recorded MIC (system: Klebsiella pneumoniae)
Reply: 25

Ask: // map O=c1cc(-c2ccc(O)c(O)c2)oc2cc(O)c([C@@H]3O[C@H](CO)[C@@H](O)[C@H](O)[C@H]3O)c(O)c12 to recorded MIC (system: Klebsiella pneumoniae)
Reply: 25

Ask: // map C[C@]1(O)CC[C@@H]2C(C(=O)O)=CO[C@@H](O[C@H]3O[C@@H](CO)[C@H](O)[C@@H](O)[C@@H]3OC(=O)c3ccc(O)cc3)[C@@H]21 to recorded MIC (system: Klebsiella pneumoniae)
Reply: 25

---

Tested on: Pseudomonas aeruginosa
Assay: Antibacterial activity against Pseudomonas aeruginosa by broth micro-dilution technique
Type: functional
Overview of reported MIC across a group of compounds:
Provide only the numeric value, understood in µg/mL.

O=c1cc(-c2ccc(O)c(O)c2)oc2cc(O)cc(O)c12 [LUTEOLIN]
25

Now for another entry.
Ask: // map C[C@]1(O)CC[C@@H]2C(C(=O)O)=CO[C@@H](O[C@H]3O[C@@H](CO)[C@H](O)[C@@H](O)[C@@H]3OC(=O)c3ccc(O)cc3)[C@@H]21 to recorded MIC (system: Pseudomonas aeruginosa)
Reply: 25

---

Tested on: Pseudomonas aeruginosa
Test: Antibacterial activity against Pseudomonas aeruginosa by broth micro-dilution technique
Assay type: functional
Overview of reported MIC across a group of molecules:
Provide only the numeric value, understood in µg/mL.

CC1(C)S[C@@H]2[C@H](NC(=O)[C@H](N)c3ccccc3)C(=O)N2[C@H]1C(=O)O
50

Ask: What value of MIC has been reported for the following molecule? COc1ccc(-c2oc3cc(OC)c(OC)c(O)c3c(=O)c2OC)cc1OC
Reply: 50

---

Test system: Trichophyton benhamiae
Test: Antifungal activity against Trichophyton mentagrophytes by broth micro-dilution technique
Format: functional, Arthroderma benhamiae
assay.endpoint: MIC (µg/mL)
Provide only the numeric value, understood in µg/mL.

Sample answers from the record:
OC(Cn1cncn1)(Cn1cncn1)c1ccc(F)cc1F
2
O=C(OCC1=C[C@@H](O)[C@@H]2C=CO[C@@H](O[C@H]3O[C@@H](CO)[C@H](O)[C@@H](O)[C@@H]3O)[C@H]12)c1ccc(O)cc1
12.5
O=c1cc(-c2ccc(O)c(O)c2)oc2cc(O)cc(O)c12
50
COc1ccc(-c2oc3cc(OC)c(OC)c(O)c3c(=O)c2OC)cc1OC
25
COC(=O)[C@H]1O[C@@H](Oc2cc(-c3cc(=O)c4c(O)cc(O)cc4o3)ccc2O)[C@H](O)[C@@H](O)[C@@H]1O
6.25

Ask: What value of MIC has been reported for the following molecule? C[C@]1(O)CC[C@@H]2C(C(=O)O)=CO[C@@H](O[C@H]3O[C@@H](CO)[C@H](O)[C@@H](O)[C@@H]3OC(=O)c3ccc(O)cc3)[C@@H]21
Reply: 6.25

Ask: What value of MIC has been reported for the following molecule? O=c1cc(-c2ccc(O)c(O)c2)oc2cc(O)c([C@@H]3O[C@H](CO)[C@@H](O)[C@H](O)[C@H]3O)c(O)c12
Reply: 12.5

---

System: Cryptococcus neoformans
Assay: Antifungal activity against Cryptococcus neoformans by broth micro-dilution technique
Format: functional
assay.endpoint: MIC

Sample answers from the record:
C[C@]1(O)CC[C@@H]2C(C(=O)O)=CO[C@@H](O[C@H]3O[C@@H](CO)[C@H](O)[C@@H](O)[C@@H]3OC(=O)c3ccc(O)cc3)[C@@H]21
6.25 µg/mL
COC(=O)[C@H]1O[C@@H](Oc2cc(-c3cc(=O)c4c(O)cc(O)cc4o3)ccc2O)[C@H](O)[C@@H](O)[C@@H]1O
6.25 µg/mL
OC(Cn1cncn1)(Cn1cncn1)c1ccc(F)cc1F
1 µg/mL
O=C(OCC1=C[C@@H](O)[C@@H]2C=CO[C@@H](O[C@H]3O[C@@H](CO)[C@H](O)[C@@H](O)[C@@H]3O)[C@H]12)c1ccc(O)cc1
12.5 µg/mL
O=c1cc(-c2ccc(O)c(O)c2)oc2cc(O)cc(O)c12
25 µg/mL

Ask: // map O=c1cc(-c2ccc(O)c(O)c2)oc2cc(O)c([C@@H]3O[C@H](CO)[C@@H](O)[C@H](O)[C@H]3O)c(O)c12 to recorded MIC (system: Cryptococcus neoformans)
Reply: 25 µg/mL

Ask: // map COc1ccc(-c2oc3cc(OC)c(OC)c(O)c3c(=O)c2OC)cc1OC to recorded MIC (system: Cryptococcus neoformans)
Reply: 12.5 µg/mL

---

Overview of reported MIC across a group of compounds:
System: Staphylococcus aureus
Assay: Antibacterial activity against Staphylococcus aureus by broth micro-dilution technique
Type: functional
Provide only the numeric value, understood in µg/mL.

Sample answers from the record:
O=c1cc(-c2ccc(O)c(O)c2)oc2cc(O)c([C@@H]3O[C@H](CO)[C@@H](O)[C@H](O)[C@H]3O)c(O)c12 [ISOORIENTIN]
25
COc1ccc(-c2oc3cc(OC)c(OC)c(O)c3c(=O)c2OC)cc1OC [ARTEMETIN]
25
CC1(C)S[C@@H]2[C@H](NC(=O)[C@H](N)c3ccccc3)C(=O)N2[C@H]1C(=O)O [AMPICILLIN]
0.09
C[C@]1(O)CC[C@@H]2C(C(=O)O)=CO[C@@H](O[C@H]3O[C@@H](CO)[C@H](O)[C@@H](O)[C@@H]3OC(=O)c3ccc(O)cc3)[C@@H]21
50

Ask: What value of MIC has been reported for the following compound? O=c1cc(-c2ccc(O)c(O)c2)oc2cc(O)cc(O)c12 [LUTEOLIN]
Reply: 25
